// provenance: ChEMBL document CHEMBL1124441

Tested on: B16
Test: Percent of median lifetime of test animals divided by the median lifetime of control animals at a dose of 2.5 mg/kg intraperitoneally
Type: functional, Mus musculus
Settings: route intraperitoneal
Listed next: entries and their corresponding T/C.
# value in %; strip the unit string

Answered cases to consult:
CC(=O)OC1C(=O)[C@@]2(C)[C@H]([C@H](OC(=O)c3ccccc3)[C@]3(O)CC(OC(=O)C(OC(=O)CCC(=O)O)C(NC(=O)c4ccccc4)c4ccccc4)C(C)=C1C3(C)C)[C@]1(OC(C)=O)CO[C@@H]1C[C@@H]2O (some centres undefined) = 119
CC(=O)OC1C(=O)[C@@]2(C)[C@H]([C@H](OC(=O)c3ccccc3)[C@]3(O)CC(OC(=O)C(OC(=O)CCC(=O)[O-])C(NC(=O)c4ccccc4)c4ccccc4)C(C)=C1C3(C)C)[C@]1(OC(C)=O)CO[C@@H]1C[C@@H]2O.[Na+] (some centres undefined) = 159
CC(=O)OC1C(=O)[C@@]2(C)[C@H]([C@H](OC(=O)c3ccccc3)[C@]3(O)CC(OC(=O)C(OC(=O)CCCC(=O)NCCCN(C)C)C(NC(=O)c4ccccc4)c4ccccc4)C(C)=C1C3(C)C)[C@]1(OC(C)=O)CO[C@@H]1C[C@@H]2O.Cl (some centres undefined) = 129

Read the next record carefully.
// T/C lookup, molecule = CC(=O)OC1C(=O)[C@]2(C)C(O)C[C@H]3OC[C@@]3(OC(C)=O)[C@H]2[C@H](OC(=O)c2ccccc2)[C@]2(O)CC(OC(=O)[C@@H]3OC(=O)N(C(=O)c4ccccc4)[C@H]3c3ccccc3)C(C)=C1C2(C)C (some centres undefined) , result: 88

* * *

Listing of entries alongside the reported Weight difference.
System: B16
Experiment: Difference in body weight in grams between test and control animals at a dose of 2.5 mg/kg intraperitoneally
Assay type: functional, Mus musculus
Settings: route intraperitoneal
Give just the number in g; leave the unit off.

CC(=O)OC1C(=O)[C@@]2(C)[C@H]([C@H](OC(=O)c3ccccc3)[C@]3(O)CC(OC(=O)C(OC(=O)CCC(=O)[O-])C(NC(=O)c4ccccc4)c4ccccc4)C(C)=C1C3(C)C)[C@]1(OC(C)=O)CO[C@@H]1C[C@@H]2O.[Na+] (some centres undefined) = 0.4
CC(=O)OC1C(=O)[C@@]2(C)[C@H]([C@H](OC(=O)c3ccccc3)[C@]3(O)CC(OC(=O)C(OC(=O)CCC(=O)O)C(NC(=O)c4ccccc4)c4ccccc4)C(C)=C1C3(C)C)[C@]1(OC(C)=O)CO[C@@H]1C[C@@H]2O (some centres undefined) = 0
CC(=O)OC1C(=O)[C@@]2(C)[C@H]([C@H](OC(=O)c3ccccc3)[C@]3(O)CC(OC(=O)C(OC(=O)CCCC(=O)NCCCN(C)C)C(NC(=O)c4ccccc4)c4ccccc4)C(C)=C1C3(C)C)[C@]1(OC(C)=O)CO[C@@H]1C[C@@H]2O.Cl (some centres undefined) = -0.1

The reported value for CC(=O)OC1C(=O)[C@]2(C)C(O)C[C@H]3OC[C@@]3(OC(C)=O)[C@H]2[C@H](OC(=O)c2ccccc2)[C@]2(O)CC(OC(=O)[C@@H]3OC(=O)N(C(=O)c4ccccc4)[C@H]3c3ccccc3)C(C)=C1C2(C)C (some centres undefined) in terms of Weight difference is -0.3

* * *

System: B16
Test: Difference in body weight in grams between test and control animals at a dose of 5 mg/kg intraperitoneally
Format: functional, Mus musculus
Settings: route intraperitoneal
propertyName: Weight difference (g)
Response body: numeric value in g, unit text excluded.

CC(=O)OC1C(=O)[C@@]2(C)[C@H]([C@H](OC(=O)c3ccccc3)[C@]3(O)CC(OC(=O)C(OC(=O)CCCC(=O)NCCCN(C)C)C(NC(=O)c4ccccc4)c4ccccc4)C(C)=C1C3(C)C)[C@]1(OC(C)=O)CO[C@@H]1C[C@@H]2O.Cl (some centres not stated) = 0.1

Here is the next item to consider.
Consider CC(=O)OC1C(=O)[C@@]2(C)[C@H]([C@H](OC(=O)c3ccccc3)[C@]3(O)CC(OC(=O)C(O)C(NC(=O)c4ccccc4)c4ccccc4)C(C)=C1C3(C)C)[C@]1(OC(C)=O)CO[C@@H]1C[C@@H]2O (some centres not stated) . Its measured Weight difference is -0.2

* * *

// values below are reported T/C
Tested on: B16
Assay: Percent of median lifetime of test animals divided by the median lifetime of control animals at a dose of 20 mg/kg intraperitoneally
Type: functional, Mus musculus
Conditions: route intraperitoneal
Express it in %; write the number only.

CC(=O)OC1C(=O)[C@@]2(C)[C@H]([C@H](OC(=O)c3ccccc3)[C@]3(O)CC(OC(=O)C(OC(=O)CCC(=O)O)C(NC(=O)c4ccccc4)c4ccccc4)C(C)=C1C3(C)C)[C@]1(OC(C)=O)CO[C@@H]1C[C@@H]2O (stereo not given in full) = 154

molecule CC(=O)OC1C(=O)[C@@]2(C)[C@H]([C@H](OC(=O)c3ccccc3)[C@]3(O)CC(OC(=O)C(OC(=O)CCCC(=O)NCCCN(C)C)C(NC(=O)c4ccccc4)c4ccccc4)C(C)=C1C3(C)C)[C@]1(OC(C)=O)CO[C@@H]1C[C@@H]2O.Cl (stereo not given in full) , T/C observed: 352

The molecule listed as CC(=O)OC1C(=O)[C@@]2(C)[C@H]([C@H](OC(=O)c3ccccc3)[C@]3(O)CC(OC(=O)C(O)C(NC(=O)c4ccccc4)c4ccccc4)C(C)=C1C3(C)C)[C@]1(OC(C)=O)CO[C@@H]1C[C@@H]2O (stereo not given in full) has a reported T/C of 96

Memo: CC(=O)OC1C(=O)[C@]2(C)C(O)C[C@H]3OC[C@@]3(OC(C)=O)[C@H]2[C@H](OC(=O)c2ccccc2)[C@]2(O)CC(OC(=O)[C@@H]3OC(=O)N(C(=O)c4ccccc4)[C@H]3c3ccccc3)C(C)=C1C2(C)C (stereo not given in full) , reported T/C: 98

Item: CC(=O)OC1C(=O)[C@@]2(C)[C@H]([C@H](OC(=O)c3ccccc3)[C@]3(O)CC(OC(=O)C(OC(=O)CCC(=O)[O-])C(NC(=O)c4ccccc4)c4ccccc4)C(C)=C1C3(C)C)[C@]1(OC(C)=O)CO[C@@H]1C[C@@H]2O.[Na+] (stereo not given in full) | T/C: 201

* * *

Recorded Weight difference values for a group of compounds are listed next.
System: B16
Assay: Difference in body weight in grams between test and control animals at a dose of 5 mg/kg intraperitoneally
Type: functional, Mus musculus
Details: route intraperitoneal
Report the figure in g without appending any unit label.

Before answering, review these 2 worked examples.
CC(=O)OC1C(=O)[C@@]2(C)[C@H]([C@H](OC(=O)c3ccccc3)[C@]3(O)CC(OC(=O)C(OC(=O)CCC(=O)[O-])C(NC(=O)c4ccccc4)c4ccccc4)C(C)=C1C3(C)C)[C@]1(OC(C)=O)CO[C@@H]1C[C@@H]2O.[Na+] (stereo partly drawn) = 0
CC(=O)OC1C(=O)[C@@]2(C)[C@H]([C@H](OC(=O)c3ccccc3)[C@]3(O)CC(OC(=O)C(OC(=O)CCC(=O)O)C(NC(=O)c4ccccc4)c4ccccc4)C(C)=C1C3(C)C)[C@]1(OC(C)=O)CO[C@@H]1C[C@@H]2O (stereo partly drawn) = 0.4

The reported value for CC(=O)OC1C(=O)[C@]2(C)C(O)C[C@H]3OC[C@@]3(OC(C)=O)[C@H]2[C@H](OC(=O)c2ccccc2)[C@]2(O)CC(OC(=O)[C@@H]3OC(=O)N(C(=O)c4ccccc4)[C@H]3c3ccccc3)C(C)=C1C2(C)C (stereo partly drawn) in terms of Weight difference is 0
